- measurement target: PI3Kα (Homo sapiens, UniProt P42336)
- Sequence (P42336 whole entry): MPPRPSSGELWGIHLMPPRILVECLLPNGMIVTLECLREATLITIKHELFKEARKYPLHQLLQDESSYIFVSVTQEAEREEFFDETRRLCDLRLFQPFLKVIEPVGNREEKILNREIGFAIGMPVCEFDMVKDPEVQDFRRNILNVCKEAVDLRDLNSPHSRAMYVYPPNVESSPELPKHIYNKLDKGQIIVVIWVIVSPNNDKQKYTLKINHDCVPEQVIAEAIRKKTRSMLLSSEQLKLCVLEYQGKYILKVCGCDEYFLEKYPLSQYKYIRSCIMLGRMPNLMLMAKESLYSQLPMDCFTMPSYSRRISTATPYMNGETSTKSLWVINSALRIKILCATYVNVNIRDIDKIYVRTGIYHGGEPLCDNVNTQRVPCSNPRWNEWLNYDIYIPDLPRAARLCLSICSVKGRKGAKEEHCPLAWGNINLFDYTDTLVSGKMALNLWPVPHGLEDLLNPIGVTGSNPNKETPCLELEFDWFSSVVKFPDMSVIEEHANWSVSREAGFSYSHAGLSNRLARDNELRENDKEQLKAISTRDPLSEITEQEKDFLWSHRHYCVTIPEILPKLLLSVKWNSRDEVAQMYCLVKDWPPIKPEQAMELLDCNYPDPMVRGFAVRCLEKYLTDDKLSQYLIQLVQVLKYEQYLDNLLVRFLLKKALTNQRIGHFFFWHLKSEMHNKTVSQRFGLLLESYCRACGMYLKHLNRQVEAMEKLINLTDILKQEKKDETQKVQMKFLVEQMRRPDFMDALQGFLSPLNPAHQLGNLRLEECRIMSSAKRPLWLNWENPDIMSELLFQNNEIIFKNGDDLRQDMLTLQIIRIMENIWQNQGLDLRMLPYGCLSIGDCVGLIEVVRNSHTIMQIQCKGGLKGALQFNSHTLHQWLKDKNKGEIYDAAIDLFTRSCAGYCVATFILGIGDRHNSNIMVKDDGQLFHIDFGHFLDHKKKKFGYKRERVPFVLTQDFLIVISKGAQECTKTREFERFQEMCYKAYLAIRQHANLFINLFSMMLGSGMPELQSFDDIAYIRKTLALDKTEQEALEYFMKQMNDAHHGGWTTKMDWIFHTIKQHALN
- Sequence (P27986 whole entry partner): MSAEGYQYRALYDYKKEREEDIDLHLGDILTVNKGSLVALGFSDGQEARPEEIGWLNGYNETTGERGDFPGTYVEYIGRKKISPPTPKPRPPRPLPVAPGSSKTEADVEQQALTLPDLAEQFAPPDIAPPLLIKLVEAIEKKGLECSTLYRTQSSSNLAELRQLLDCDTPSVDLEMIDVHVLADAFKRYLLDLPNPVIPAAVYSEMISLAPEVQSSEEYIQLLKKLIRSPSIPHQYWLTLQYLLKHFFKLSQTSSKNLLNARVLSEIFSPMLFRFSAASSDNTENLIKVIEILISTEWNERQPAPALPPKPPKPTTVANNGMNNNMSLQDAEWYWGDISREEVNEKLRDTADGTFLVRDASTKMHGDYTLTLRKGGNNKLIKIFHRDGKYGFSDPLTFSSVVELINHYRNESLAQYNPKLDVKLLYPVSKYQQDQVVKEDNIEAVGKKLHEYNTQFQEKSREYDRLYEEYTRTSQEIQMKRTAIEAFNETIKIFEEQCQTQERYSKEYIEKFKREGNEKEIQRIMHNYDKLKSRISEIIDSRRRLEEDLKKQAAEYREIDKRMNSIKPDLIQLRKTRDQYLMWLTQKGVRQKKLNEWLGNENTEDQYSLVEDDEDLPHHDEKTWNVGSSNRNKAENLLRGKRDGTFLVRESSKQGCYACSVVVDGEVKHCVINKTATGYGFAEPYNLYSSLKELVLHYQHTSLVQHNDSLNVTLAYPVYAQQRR
- experimental protocol: PI3Kα Kinase-Glo Luminescent Kinase Assay
- Assay type: biochemical
- assay conditions: 1 µM ATP, 60 min, average of two determinations
property name: IC50 (µM)
The reply should be a number in µM, with the unit left off.

// recorded IC50 for O=S1(=O)CCc2nc(N3N=C(c4ccc(F)cc4)C[C@@H]3c3ccc(Cl)c(Cl)c3)nc(N3CCOCC3)c2C1 (racemic) : 8.38

###

Measured melting point, listed per entry for reference.

Cc1ccc(C2=NN(c3nc4c(c(N5CCOCC5)n3)CSCC4)[C@@H](c3ccc(Cl)c(Cl)c3)C2)cc1 [Compound 7b]
194 to 196 °C

Consider COc1ccc(C2=NN(c3nc4c(c(N5CCOCC5)n3)CS(=O)(=O)CC4)[C@@H](c3ccccc3)C2)cc1 [Compound 8l] . Its measured melting point is 109 to 114 °C

response.value for Fc1ccc(C2=NN(c3nc4c(c(N5CCOCC5)n3)CSCC4)[C@@H](c3ccc(F)cc3)C2)cc1 [Compound 7g] (field: melting point) = 144 to 146 °C

Sure, the documented melting point for COc1ccc(C2=NN(c3nc4c(c(N5CCOCC5)n3)CSCC4)[C@@H](c3ccc(F)cc3)C2)cc1 [Compound 7h] is 116 to 118 °C

Lab note: measured melting point of COc1ccc(C2=NN(c3nc4c(c(N5CCOCC5)n3)CSCC4)[C@@H](c3ccccc3)C2)cc1 [Compound 7l] was > 300 °C

Lab book: melting point of O=S1(=O)CCc2nc(N3N=C(c4ccccc4)C[C@@H]3c3ccc(Br)cc3)nc(N3CCOCC3)c2C1 [Compound 8k] noted as 163 to 167 °C

# compound Fc1ccc(C2=NN(c3nc4c(c(N5CCOCC5)n3)CSCC4)[C@@H](c3ccc(Cl)c(Cl)c3)C2)cc1 [Compound 7d] ; its melting point = 207 to 211 °C

melting point recorded for this compound, COc1ccc(C2=NN(c3nc4c(c(N5CCOCC5)n3)CS(=O)(=O)CC4)[C@@H](c3ccc(F)cc3)C2)cc1 [Compound 8h] , is 140 to 142 °C

###

- Tested on: HepG2 cell line
- experimental protocol: MTT cytotoxicity assay, HepG2
- Type: cell-based
- assay conditions: Homo sapiens, HepG2, 72 h, average of two determinations, NA = No Activity
property name: IC50 (µM)
Unit µM implied. Number only.

Below, each entry is followed by its recorded IC50 result.
Clc1ccc([C@H]2CC(c3ccc(Br)cc3)=NN2c2nc3c(c(N4CCOCC4)n2)CSCC3)cc1Cl [Compound 7c]
15.4
CS(=O)(=O)N1CCN(Cc2cc3nc(-c4cccc5[nH]ncc45)nc(N4CCOCC4)c3s2)CC1 [GDC-0941, Pictilisib dimethanesulfonate, reference compound]
0.07
COc1ccc(C2=NN(c3nc4c(c(N5CCOCC5)n3)CS(=O)(=O)CC4)[C@@H](c3ccc(Cl)c(Cl)c3)C2)cc1 [Compound 8f]
35
O=S1(=O)CCc2nc(N3N=C(c4ccccc4)C[C@@H]3c3ccccc3)nc(N3CCOCC3)c2C1 [Compound 8a]
32.7
O=S1(=O)CCc2nc(N3N=C(c4ccc(F)cc4)C[C@@H]3c3ccc(Br)cc3)nc(N3CCOCC3)c2C1 (racemic) [Compound 8j]
27.8
Brc1ccc([C@H]2CC(c3ccccc3)=NN2c2nc3c(c(N4CCOCC4)n2)CSCC3)cc1 [Compound 7k]
32.7
Fc1ccc(C2=NN(c3nc4c(c(N5CCOCC5)n3)CSCC4)[C@@H](c3ccc(F)cc3)C2)cc1 [Compound 7g]
20.3
Fc1ccc(C2=NN(c3nc4c(c(N5CCOCC5)n3)CSCC4)[C@@H](c3ccc(Cl)c(Cl)c3)C2)cc1 [Compound 7d]
8.39
O=S1(=O)CCc2nc(N3N=C(c4ccccc4)C[C@@H]3c3ccc(Br)cc3)nc(N3CCOCC3)c2C1 [Compound 8k]
35.5
O=S1(=O)CCc2nc(N3N=C(c4ccc(Br)cc4)C[C@@H]3c3ccc(Cl)c(Cl)c3)nc(N3CCOCC3)c2C1 [Compound 8c]
0.06

What the record says about c1ccc(C2=NN(c3nc4c(c(N5CCOCC5)n3)CSCC4)[C@@H](c3ccccc3)C2)cc1 [Compound 7a] : IC50 is 20.3

Measured IC50 of Cc1ccc(C2=NN(c3nc4c(c(N5CCOCC5)n3)CS(=O)(=O)CC4)[C@@H](c3ccc(Br)cc3)C2)cc1 (racemic) [Compound 8i] : 24.7

The reported IC50 of the molecule COc1ccc(C2=NN(c3nc4c(c(N5CCOCC5)n3)CSCC4)[C@@H](c3ccc(F)cc3)C2)cc1 [Compound 7h] was 20.5

For this molecule ( Fc1ccc(C2=NN(c3nc4c(c(N5CCOCC5)n3)CSCC4)[C@@H](c3ccc(Br)cc3)C2)cc1 (racemic) [Compound 7j] ), measured IC50 is 23.8
